Just for reference, the supplement of paper PMC7411054 is where these values come from.

Reported lowest phenotypically active concentration values are given for each entry in this list.
# Test system: A549-GM130-SQSTM1
# Experimental protocol: lowest phenotypically active concentration; higher = less potent
# Particulars: treatment time: 24 h
Where a name gives a salt, the structure may show the parent alone.
API: value field is a number in µM; no unit string.

# Compound, Meas value
rows = [
    ("CCN(CC)c1ccc(/C=N/NC(=O)c2ccncc2)c(O)c1", 1),
    ("CC(C)(C)c1cc(/C=C(\\C#N)C(N)=S)cc(C(C)(C)C)c1O", 3),
    ("N=C(N)c1ccc(OCCCCCOc2ccc(C(=N)N)cc2)cc1", 1),
    ("NC(=O)c1cccc(-c2cc(Nc3ccc(OC(F)(F)F)cc3)ncn2)c1", 9),
]

Enquiry: // returns reported lowest phenotypically active concentration for input O=C(O)[C@@H]1[C@H]2C[C@H]3c4[nH]c5ccccc5c4CCN3C[C@@H]2CC[C@@H]1O [Yohimbinic acid monohydrate]
Return: 3

Enquiry: Could you tell me which lowest phenotypically active concentration is on file for "COc1cc(OC)c2c(=O)[nH]c(-c3cc(C)c(OCCO)c(C)c3)nc2c1" ?
Return: 9

Enquiry: Bench note: what lowest phenotypically active concentration did "Cc1cccc(-c2nn(C(=S)Nc3ccccc3)cc2-c2ccnc3ccccc23)n1" show?
Return: 9

Enquiry: Requested read-out: lowest phenotypically active concentration. Entry: "O=C1Nc2ccc(F)cc2C1=C1Nc2ccccc2C1=NO"
Return: 1

Enquiry: Dear colleague, I am looking for the recorded lowest phenotypically active concentration of the following compound: "CNc1nc(-c2ccc3c(N)n[nH]c3c2)cc(N2C[C@@H](C(=O)NC3CCCCC3)CC[C@H]2C)n1"
Return: 1

Enquiry: Entry COc1c(Cl)cc2c([nH]c3cnccc32)c1NC(=O)c1cccnc1C [ML 120B dihydrochloride] : reported lowest phenotypically active concentration = ?
Return: 3

Enquiry: Consider the compound shown here: "CN(C)CC(=O)N1CCC[C@@H](n2nc(-c3ccc(Oc4ccccc4)cc3)c3c(N)ncnc32)C1" What is its recorded lowest phenotypically active concentration?
Return: 1

Enquiry: Quick one: lowest phenotypically active concentration of "Cc1ccc(S(=O)(=O)c2ccc([N+](=O)[O-])o2)cc1" ?
Return: 3

Enquiry: Form field: reported lowest phenotypically active concentration of "CC[C@@H]1C(=O)N(C)c2cnc(Nc3ccc(C(=O)NC4CCN(C)CC4)cc3OC)nc2N1C1CCCC1"
Return: 1

Enquiry: # query: lowest phenotypically active concentration of entry "COc1cc2c(Nc3ccc(Br)cc3F)ncnc2cc1OCC1CCN(C)CC1"
Return: 1

Enquiry: Entry "COc1cc2c(N3CCN(C(=O)Nc4ccc(OC(C)C)cc4)CC3)ncnc2cc1OCCCN1CCCCC1" has what lowest phenotypically active concentration?
Return: 3

Enquiry: Bench note: what lowest phenotypically active concentration did CC(C)OC(=O)c1cc2c(OCC(O)CNC(C)(C)C)cccc2[nH]1 (stereo not given) show?
Return: 9

Enquiry: What value of measured lowest phenotypically active concentration is listed for "O=C(OC12CC3CC(CC(C3)C1)C2)c1ccc(NCc2cc(O)ccc2O)cc1" ?
Return: 9

Enquiry: Record request: lowest phenotypically active concentration value, item "Nc1ccc(-c2cccc3c(=O)cc(N4CCOCC4)oc23)cc1"
Return: 9

Enquiry: # lookup: lowest phenotypically active concentration of COc1cc2c(cc1-c1c(C)noc1C)ncc1[nH]c(=O)n([C@H](C)c3ccccn3)c12 [I-BET 151 dihydrochloride]
Return: 1

Enquiry: Could you share which lowest phenotypically active concentration value was measured for "CCCCOc1cc(C(=O)NCCN(CC)CC)c2ccccc2n1" ?
Return: 9

Enquiry: # get_value(readout='lowest phenotypically active concentration', item= "O=c1cc(N2CCOCC2)oc2c1ccc1ccccc12" )
Return: 3

Enquiry: # get_value(readout='lowest phenotypically active concentration', item= "Cc1c(O)cccc1C(=O)N[C@@H](CSc1ccccc1)[C@H](O)CN1C[C@H]2CCCC[C@H]2C[C@H]1C(=O)NC(C)(C)C" )
Return: 9

Enquiry: So what's the measured lowest phenotypically active concentration for this one? "COc1cc2c(cc1OCCCN1CCCC1)N=C(N)C21CCC1"
Return: 9
